Each entry below carries its reported Percent Control.
- System: MAP3K1
- details: Compound Concentration (nM):1000;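 note: KINOMEscan scanMAX binding as percent activity remaining versus control; lower means stronger binding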
Provide the reading as a plain figure in %.

Some entries whose results are on file:
{"columns": ["compound", "system.name", "measurement.units", "Percent Control"],
 "data": [
  ["COc1cc2ncnc(Nc3ccc4c(cnn4Cc4ccccc4)c3)c2cc1OC.Cl [GW282449A]", "MAP3K1", "%", 84],
  ["COc1cccc(-n2ncc3c(N/N=C/c4ccncc4)ncnc32)c1 [GW784752X]", "MAP3K1", "%", 70],
  ["COc1ccccc1-c1cc(/C=C2\\C(=O)Nc3ncc(Br)cc32)cc(Br)c1O [GW442130X]", "MAP3K1", "%", 99],
  ["COC(=O)Nc1nc2ccc(Oc3ccc(NC(=O)Nc4cc(C(F)(F)F)ccc4F)cc3)cc2s1.Cl [GW693917A]", "MAP3K1", "%", 53],
  ["COc1cc2ncn(-c3cc(O[C@H](C)c4ccccc4Cl)c(C(N)=O)s3)c2cc1OC [GSK237701A]", "MAP3K1", "%", 2.6]
]}

Lookup: Form entry - test system: MAP3K1; read-out: Percent Control; compound: Cl.O=C(O[C@H]1CN[C@H](C#Cc2cc3ncnc(Nc4ccc5c(cnn5Cc5ccccc5)c4)c3s2)C1)N1CCOCC1 [GSK200398A]
Found: 56

Lookup: Form entry - test system: MAP3K1; read-out: Percent Control; compound: `COc1cc(C)c(N(C)C(=O)CN(C)C)cc1Nc1nc(Nc2cccc(F)c2C(N)=O)c2cc[nH]c2n1`
Found: 83

Lookup: Form entry - test system: MAP3K1; read-out: Percent Control; compound: NS(=O)(=O)c1ccc(N/N=C2\C(=O)Nc3ccc(Cl)cc32)cc1 [GW280670X]
Found: 63

Lookup: Form entry - test system: MAP3K1; read-out: Percent Control; compound: C/C(Nc1ccc(S(N)(=O)=O)cc1)=C1/C(=O)Nc2ccccc21 [GW335962X]
Found: 62

Lookup: Form entry - test system: MAP3K1; read-out: Percent Control; compound: COc1ccc(COc2ccc(Cc3cnc(N)nc3N)cc2OC)cc1 [GW632580X]
Found: 65

Lookup: Form entry - test system: MAP3K1; read-out: Percent Control; compound: COc1cc(N2CCN(C(C)C)CC2)ccc1Nc1nc(Nc2ccc(F)cc2C(=O)NC[C@@H](O)CO)c2cc[nH]c2n1 [GSK1392956A]
Found: 86

====

- Tested on: FLT3(D835V)
- details: Compound Concentration (nM):1000
Assign labels as follows, please: criterion met for Percent Control below 1%; criterion not met for Percent Control equal to or exceeding 1%.

Recorded results for 6 compounds are shown here.
{"columns": ["compound", "assigned.category"],
 "data": [
  ["CN1CCN(C(=O)c2ccc(NC(=O)Nc3ccc(N(C)c4ccnc(Nc5ccc(CS(C)(=O)=O)cc5)n4)cc3)cc2)CC1.Cl [GW830263A]", "criterion not met"],
  ["COc1ccc(COc2ccc(Cc3cnc(N)nc3N)cc2OC)cc1 [GW632580X]", "criterion not met"],
  ["CCS(=O)(=O)c1ccc(OC)c(Nc2ncc(-c3cccc(F)c3)o2)c1 [GW621970X]", "criterion met"],
  ["NS(=O)(=O)c1ccc(Nc2ncc(-c3ccccc3)o2)cc1 [GW572399X]", "criterion not met"],
  ["C[C@@H](Oc1cc(-n2cnc3ccc(OC4CCN(C)CC4)cc32)sc1C(N)=O)c1ccccc1Cl [GSK579289A]", "criterion met"],
  ["CN(C)c1cc2c(Nc3ccc4c(cnn4Cc4ccccc4)c3)ncnc2cn1 [GW282974X]", "criterion not met"]
]}

Lookup: Here's an entry: CCS(=O)(=O)c1ccc(OC)c(Nc2ncc(-c3cccc(OC)c3)o2)c1 [GW580509X] . Is its Percent Control below 1%?
Found: criterion met

Lookup: Here's an entry: COc1cc(C)c(N(C)C(=O)CN(C)C)cc1Nc1nc(Nc2cccc(F)c2C(N)=O)c2cc[nH]c2n1 [GSK2219385] . Is its Percent Control below 1%?
Found: criterion not met

====

Each entry below carries its reported Percent Control.
- Test system: QSK
- Construct: gene KIAA0999
- details: Compound Concentration (nM):1000
Provide the reading as a plain figure in %.

Some entries whose results are on file:
{"columns": ["molecule", "measured.metric", "measured"],
 "data": [
  ["COc1cc(N2CCN(C(C)C)CC2)ccc1Nc1nc(Nc2ccc(F)cc2C(=O)NC[C@@H](O)CO)c2cc[nH]c2n1 [GSK1392956A]", "Percent Control", 100],
  ["NS(=O)(=O)c1ccc(Nc2ncc(-c3ccccc3)o2)cc1 [GW572399X]", "Percent Control", 100]
]}

Lookup: Recorded Percent Control for CCS(=O)(=O)c1ccc(OC)c(Nc2ncc(-c3cccc(F)c3)o2)c1 [GW621970X] , please?
Found: 99

Lookup: Recorded Percent Control for Cl.O=C(Nc1ccc(Oc2ccc3[nH]c(NC(=O)c4ccccc4)nc3c2)cc1)Nc1cc(C(F)(F)F)ccc1F [GW709042A] , please?
Found: 100

====

Each entry below carries its reported Percent Control.
- Tested on: EPHB1
- details: Compound Concentration (nM):1000
Could you give the number and then its unit, please?

Some entries whose results are on file:
{"columns": ["compound", "Percent Control"],
 "data": [
  ["CC1=C(C(=O)Nc2ccc3[nH]ncc3c2)C(c2ccc(Cl)c(Cl)c2)CC(=O)N1 (stereo not drawn) [GSK299115A]", "74%"],
  ["CC1=C(C(=O)Nc2ccc3[nH]ncc3c2)C(c2ccc3ccccc3c2)CC(=O)N1 (stereo not drawn) [GSK270822A]", "99%"],
  ["NS(=O)(=O)c1ccc(N/N=C2\\C(=O)Nc3ccc(Cl)cc32)cc1 [GW280670X]", "100%"]
]}

Lookup: Recorded Percent Control for Cl.O=C(O[C@H]1CN[C@H](C#Cc2cc3ncnc(Nc4ccc5c(cnn5Cc5ccccc5)c4)c3s2)C1)N1CCOCC1 [GSK200398A] , please?
Found: 100%

Lookup: Recorded Percent Control for COc1ccc(COc2ccc(Cc3cnc(N)nc3N)cc2OC)cc1 [GW632580X] , please?
Found: 90%

Lookup: Recorded Percent Control for CCS(=O)(=O)c1ccc(OC)c(Nc2ncc(-c3cccc(OC)c3)o2)c1 [GW580509X] , please?
Found: 100%

====

- System: DMPK2
- Construct: gene CDC42BPG
- details: Compound Concentration (nM):1000
Each entry below carries its reported Percent Control.
Provide the reading as a plain figure in %.

Some entries whose results are on file:
{"columns": ["compound", "measured"],
 "data": [
  ["COC(=O)Nc1nc2ccc(Oc3ccc(NC(=O)Nc4cc(C(F)(F)F)ccc4F)cc3)cc2s1.Cl [GW693917A]", 73],
  ["COc1ccccc1-c1cc(/C=C2\\C(=O)Nc3ncc(Br)cc32)cc(Br)c1O [GW442130X]", 100],
  ["Nc1ncnc2occ(-c3ccc(NC(=O)Nc4cc(C(F)(F)F)ccc4F)cc3)c12 [GW770249X]", 96]
]}

Lookup: Recorded Percent Control for C[C@@H](Oc1cc(-n2cnc3ccc(OC4CCN(C)CC4)cc32)sc1C(N)=O)c1ccccc1Cl [GSK579289A] , please?
Found: 100

Lookup: Recorded Percent Control for `COc1ccc2cc(-c3c(-c4ccncc4)nc(-c4ccc(S(C)(=O)=O)cc4C)n3C)ccc2c1` , please?
Found: 41

====

Each entry below carries its reported Percent Control.
- Tested on: MST3
- Construct: gene STK24
- details: Compound Concentration (nM):1000
Provide the reading as a plain figure in %.

Some entries whose results are on file:
{"columns": ["compound", "system.name", "measured"],
 "data": [
  ["O=C1Nc2ccc(C(=O)c3ccco3)cc2C1=Cc1cc(Cl)c(O)c(Cl)c1 [GW406108X]", "MST3", 86],
  ["Cl.c1ccc(Cc2nc3ccc(Nc4ncnc5ccccc45)cc3[nH]2)cc1 [GR269666A]", "MST3", 100],
  ["COc1cccc(-c2c[nH]c3c(N/N=C/c4ccncc4)ncnc23)c1 [GW814408X]", "MST3", 74],
  ["NS(=O)(=O)c1ccc(Nc2ncc(-c3ccccc3)o2)cc1 [GW572399X]", "MST3", 100],
  ["COc1cc2ncnc(Nc3ccc4c(cnn4Cc4ccccc4)c3)c2cc1OC.Cl [GW282449A]", "MST3", 100],
  ["CCc1ccc(Oc2nccc(-c3c(-c4ccc(F)cc4)ncn3C3CCNCC3)n2)cc1", "MST3", 90],
  ["CC1=C(C(=O)Nc2ccc3[nH]ncc3c2)C(c2ccc3ccccc3c2)CC(=O)N1 (stereo not drawn) [GSK270822A]", "MST3", 90],
  ["COc1ccc2c(-c3ccnc(Nc4cccc(OC(F)(F)F)c4)n3)cnn2n1 [GW810372X]", "MST3", 98]
]}

Shifting focus to the compound that follows.
Lookup: Recorded Percent Control for COc1ccccc1-c1cc(/C=C2\C(=O)Nc3ncc(Br)cc32)cc(Br)c1O [GW442130X] , please?
Found: 100
